- ASSAYED_TARGET: human TLR8 (Homo sapiens (Human), UniProt Q9NR97)
- Sequence (Q9NR97 27-1041): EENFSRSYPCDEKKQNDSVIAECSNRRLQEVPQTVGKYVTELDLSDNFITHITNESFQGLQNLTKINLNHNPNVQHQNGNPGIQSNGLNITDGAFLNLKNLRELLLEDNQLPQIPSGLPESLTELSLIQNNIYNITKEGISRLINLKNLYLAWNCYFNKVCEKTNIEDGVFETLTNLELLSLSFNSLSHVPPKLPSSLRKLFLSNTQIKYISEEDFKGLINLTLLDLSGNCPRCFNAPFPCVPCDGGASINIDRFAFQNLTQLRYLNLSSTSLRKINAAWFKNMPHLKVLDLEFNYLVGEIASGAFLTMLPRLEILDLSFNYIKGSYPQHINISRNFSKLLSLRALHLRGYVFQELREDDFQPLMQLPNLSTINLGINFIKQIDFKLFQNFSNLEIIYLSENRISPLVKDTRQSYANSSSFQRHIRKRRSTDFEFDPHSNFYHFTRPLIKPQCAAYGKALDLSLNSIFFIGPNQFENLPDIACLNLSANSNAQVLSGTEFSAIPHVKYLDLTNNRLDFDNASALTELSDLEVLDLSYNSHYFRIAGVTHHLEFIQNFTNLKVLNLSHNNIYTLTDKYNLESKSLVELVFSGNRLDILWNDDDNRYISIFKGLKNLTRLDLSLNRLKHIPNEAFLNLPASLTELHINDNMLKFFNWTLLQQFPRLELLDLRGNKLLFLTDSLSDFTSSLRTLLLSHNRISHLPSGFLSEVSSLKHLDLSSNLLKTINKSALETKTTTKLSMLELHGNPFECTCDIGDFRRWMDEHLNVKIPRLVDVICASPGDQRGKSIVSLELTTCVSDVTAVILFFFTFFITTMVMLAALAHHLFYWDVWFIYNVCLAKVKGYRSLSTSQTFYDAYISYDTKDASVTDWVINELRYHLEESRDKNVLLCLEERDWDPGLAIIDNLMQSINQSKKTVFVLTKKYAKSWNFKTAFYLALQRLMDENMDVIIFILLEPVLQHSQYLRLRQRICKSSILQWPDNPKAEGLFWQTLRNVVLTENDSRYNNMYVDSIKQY
- PROCEDURE_DETAILS: TLR8 inhibition reporter assay (HEK-Blue cells, SEAP reporter, R848 stimulation)
- MEASUREMENT_CONTEXT: read-out: TLR8 IC50, HEK-Blue cells overexpressing human TLR8, R848 15.9 μM
PARAMETER_MEASURED: IC50 (nM)

# example entries with known answers
{"COMPOUND": "Cc1cc(-c2[nH]c3ccc(C4CCN(C(=O)CC5C(=O)N(C)C(=O)N5C)CC4)cc3c2C(C)C)cc(C)n1 (stereo not shown)", "IC50 [nM]": 44.4}
{"COMPOUND": "Cc1cc(-c2[nH]c3ccc(C4CCN(C(=O)C5CCOC5)CC4)cc3c2C(C)C)ccn1 (stereo not shown)", "IC50 [nM]": 178}
{"COMPOUND": "Cc1cc(-c2[nH]c3ccc(C4CCN(CC5CCN(C(C)C)C5)CC4)cc3c2C(C)C)cc(C)n1 (stereo not shown)", "IC50 [nM]": 4.7}
{"COMPOUND": "Cc1cc(-c2[nH]c3ccc(C4CCN(Cc5ccn(C)n5)CC4)cc3c2C(C)C)cc(C)n1", "IC50 [nM]": 0.7}

(1) Cc1cc(-c2[nH]c3ccc(C4CCNCC4)cc3c2C(C)C)c(C)cn1
(2) Cc1cc(-c2[nH]c3ccc(C4CCN(CC(=O)N5CC6(COC6)C5)CC4)cc3c2C(C)C)cc(C)n1
(3) Cc1cc(-c2[nH]c3ccc(C4CCN(CCCN(C)C)CC4)cc3c2C(C)C)cc(C)n1
(4) Cc1cc(-c2[nH]c3ccc(C4CCN(C(=O)CN(C)C)CC4)cc3c2C2CC2)cc(C)n1
// query hey, can you rank those compounds up there by IC50? biggest number first please Lab note: final answer is the ordered label list.
// result 4, 2, 3, 1
(4: 18.4 nM, 2: 9.2 nM, 3: 2.8 nM, 1: 1 nM)

(I) Cc1cc(-c2[nH]c3ccc(C4CCN(C5CCOCC5)CC4)cc3c2C(C)C)c(F)cn1
(II) Cc1cc(-c2[nH]c3ccc(C4CCN(CC(=O)N5CCCC(O)C5)CC4)cc3c2C(C)C)cc(C)n1 (stereo not shown)
(III) Cc1cc(-c2[nH]c3ccc(C4CCNCC4)cc3c2C(C)C)cc(C)[n+]1[O-]
// query hey, can you rank those compounds up there by IC50? biggest number first please Lab note: final answer is the ordered label list.
// result III, II, I
(III: 23.9 nM, II: 6.6 nM, I: 3.8 nM)

====

- ASSAYED_TARGET: human TLR8 (Homo sapiens (Human), UniProt Q9NR97)
- PROCEDURE_DETAILS: TLR8 inhibition reporter assay (HEK-Blue cells, SEAP reporter, R848 stimulation);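 also: compounds tested from 0.05 nM to 50 µM, 22 h at 37 °C, SEAP measured with HEK-Blue Detection, inhibition relative to agonist plus DMSO versus a known inhibitor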
- MEASUREMENT_CONTEXT: read-out: TLR8 IC50, HEK-Blue cells overexpressing human TLR8, R848 15.9 μM
PARAMETER_MEASURED: IC50 (nM)

# example entries with known answers
{"COMPOUND": "Cc1cc(-c2[nH]c3ccc(C4CCN(CC(=O)N5CCNC(=O)C5)CC4)cc3c2C(C)C)cc(C)n1 [Example 272]", "IC50 [nM]": 3.1}
{"COMPOUND": "CCc1c(-c2ccnc(OC)c2)[nH]c2ccc(C3CCN(C4C[C@H]5CCC[C@@H](C4)N5C)CC3)cc12 (stereo partly shown) [Example 798]", "IC50 [nM]": 165}
{"COMPOUND": "Cc1cc(-c2[nH]c3ccc(C4CCN(C(=O)CN(C)C5COC5)CC4)cc3c2C(C)C)c(F)cn1 [Example 678]", "IC50 [nM]": 30.6}
{"COMPOUND": "Cc1cc(-c2[nH]c3ccc(C4CCN(C(=O)Cn5ncnn5)CC4)cc3c2C(C)C)cc(C)n1 [Example 155]", "IC50 [nM]": 31.7}
{"COMPOUND": "Cc1cc(-c2[nH]c3ccc(C4CCN(CC5COC5)CC4)cc3c2C(C)C)c(F)cn1 [Example 650]", "IC50 [nM]": 1.8}

(A) Cc1cc(-c2[nH]c3ccc(C4CCN(C(=O)CN5CCCC(F)(F)C5)CC4)cc3c2C(C)C)cc(C)n1 [Example 390]
(B) Cc1cc(-c2[nH]c3ccc(C4CCN(C(=O)C[C@H]5CCCN5)CC4)cc3c2C(C)C)cc(C)n1 [Example 193]
// query Rank A against B by their IC50 values and give the higher one. Your choice should be expressed through its label.
// result A
